experimental_system: HLA-A*02:06
test_method_notes: IEDB peptide-MHC binding, purified MHC/competitive/fluorescence; filed as Kd, often an IC50 or EC50 that approximates it; bounds were set here for any values at or beyond the usual limits of such assays
assay_setup: source organism: Pasteurella multocida subsp. multocida str. Pm70
measure: Kd

# query_sequence, result
measured = [
    ("LMAEDLANV", "≤ 0.1 nM"),
]

* * *

experimental_system: HLA-C*08:02
test_method_notes: IEDB peptide-MHC binding, purified MHC/direct/fluorescence; filed as Kd, often an IC50 or EC50 that approximates it; bounds were set here for any values at or beyond the usual limits of such assays
assay_setup: source organism: Vaccinia virus Copenhagen
measure: Kd

# query_sequence, result
rows = [
    ("RVYEALYYV", "≥ 20 µM"),
]

* * *

experimental_system: HLA-B*15:17
test_method_notes: IEDB peptide-MHC binding, purified MHC/competitive/fluorescence; filed as Kd, often an IC50 or EC50 that approximates it; bounds were set here for any values at or beyond the usual limits of such assays
assay_setup: source organism: Human immunodeficiency virus 1
measure: Kd (nM)

# query_sequence, numeric_result
measured = [
    ("RSLYNTIATLY", 0.7),
]

* * *

experimental_system: HLA-A*11:01
test_method_notes: IEDB peptide-MHC binding, purified MHC/competitive/radioactivity; filed as Kd, often an IC50 or EC50 that approximates it; bounds were set here for any values at or beyond the usual limits of such assays
assay_setup: source organism: Mammarenavirus whitewaterense
# reported Kd; entries follow
measure: Kd

# query_sequence, experimental_system, result
measured = [
    ("PMPCMINDTH", "HLA-A*11:01", "≥ 69700 nM"),
    ("VCFWSTLFY", "HLA-A*11:01", "930 nM"),
    ("DSVCACGLFK", "HLA-A*11:01", "133 nM"),
]

* * *

experimental_system: HLA-B*40:01
test_method_notes: IEDB peptide-MHC binding, purified MHC/competitive/radioactivity; filed as Kd, often an IC50 or EC50 that approximates it; bounds were set here for any values at or beyond the usual limits of such assays
assay_setup: source organism: Dengue virus 3 Martinique/1243/1999

# query_sequence, Kd [nM]
measured = [
    ("RENLLLGVGL", 2.47),
]

* * *

experimental_system: HLA-A*24:03
test_method_notes: IEDB peptide-MHC binding, purified MHC/direct/fluorescence; filed as Kd, often an IC50 or EC50 that approximates it; bounds were set here for any values at or beyond the usual limits of such assays
assay_setup: source organism: Escherichia coli O157:H7
pKd: −log10 of the molar value.

# query_sequence, pKd
records = [
    ("VVPLYDTPL", "≤ 4.70"),
]

* * *

experimental_system: HLA-A*24:02
test_method_notes: IEDB peptide-MHC binding, purified MHC/competitive/radioactivity; filed as Kd, often an IC50 or EC50 that approximates it; bounds were set here for any values at or beyond the usual limits of such assays
assay_setup: source organism: Dengue virus 4 Dominica/814669/1981

# query_sequence, Kd
records = [
    ("DFGSVGGLF", "2.64 µM"),
]

* * *

experimental_system: HLA-A*02:16
test_method_notes: IEDB peptide-MHC binding, purified MHC/direct/fluorescence; filed as Kd, often an IC50 or EC50 that approximates it; bounds were set here for any values at or beyond the usual limits of such assays
assay_setup: source organism: Reston ebolavirus
pKd: −log10 of the molar value.
measure: pKd

# query_sequence, result
rows = [
    ("TTDDSTSYY", "≤ 4.70"),
]
